test system: Enterobacter cloacae ATCC 43560
parameter measured: MIC (µg/mL)

- compound: "CO[C@H]1CCC[C@@H]1C#CC#Cc1ccc(C(=O)N[C@H](C(=O)NO)C(C)(C)N)cc1 [I-1]"
  modifier sign: "="
  reported: 1
- compound: "CC(C)(N)[C@H](NC(=O)c1ccc(C#CC#Cc2ccc(CN3CCCCC3)cc2)cc1O)C(=O)NO [I-3]"
  modifier sign: "="
  reported: 1
- compound: "C[C@H]1COc2c(N3CCN(C)CC3)c(F)cc3c(=O)c(C(=O)O)cn1c23 [Levofloxacin, levofloxacin, reference compound]"
  modifier sign: "≤"
  reported: 0.25
- compound: "CC(C)(N)[C@H](NC(=O)N1CCN(C#CC#Cc2ccc([N+](=O)[O-])cc2)CC1)C(=O)NO [I-2]"
  modifier sign: "="
  reported: 0.5
